Please provide measured mortality at 20 ppm for the entries that follow.
Test system: tobacco cutworm
Assay: Test 2: Tobacco Cutworm Larva Dipping Test, mortality after 24 hours
Type: in vivo
Condition info: 20 ppm; fifth-instar larvae; 24 hours; read-out: Motality (%), Fifth-Instar Larvae

Missing value: mortality at 20 ppm, tobacco cutworm, entry CC(C)(COCc1cccc(Oc2ccccc2)c1)c1ccc(Cl)cc1 [Compound 49] . Fill in?
100%

Missing value: mortality at 20 ppm, tobacco cutworm, entry CCC(C)(COCc1cccc(Oc2ccccc2)c1)c1ccc(Cl)cc1 (stereo not drawn) [Compound 50] . Fill in?
90%

Missing value: mortality at 20 ppm, tobacco cutworm, entry CC(C)(COCc1cccc(Oc2ccccc2)c1)c1ccc(Cl)c(Cl)c1 [Compound 48] . Fill in?
60%

Missing value: mortality at 20 ppm, tobacco cutworm, entry CC(C)(CSCc1cccc(Oc2ccccc2)c1)c1ccc(Cl)cc1 [Compound 20] . Fill in?
80%

Missing value: mortality at 20 ppm, tobacco cutworm, entry CCC(C)(COCc1cccc(Oc2ccc(Br)cc2)c1)c1ccc(Cl)cc1 (stereo not drawn) [Compound 46] . Fill in?
60%

Missing value: mortality at 20 ppm, tobacco cutworm, entry CC(C)(COCc1cccc(Oc2ccc(F)cc2)c1)c1ccc(Cl)cc1 [Compound 6] . Fill in?
100%

Missing value: mortality at 20 ppm, tobacco cutworm, entry CC(C)Oc1ccc(C(C)(C)COCc2cccc(Oc3ccccc3)c2)cc1 [Compound 59] . Fill in?
100%

Missing value: mortality at 20 ppm, tobacco cutworm, entry CCOc1ccc(Oc2cccc(COCC(C)(C)c3ccc(OCC)cc3)c2)cc1 [Compound 101] . Fill in?
100%

Missing value: mortality at 20 ppm, tobacco cutworm, entry CC(C)(COCc1cccc(Oc2ccccc2)c1)c1ccc(OC(F)(F)CI)cc1 [Compound 74] . Fill in?
50%
